This section presents compounds with their documented ΔTm values.
# Tgt: Aurora kinase A (Homo sapiens)
# Sequence (whole entry): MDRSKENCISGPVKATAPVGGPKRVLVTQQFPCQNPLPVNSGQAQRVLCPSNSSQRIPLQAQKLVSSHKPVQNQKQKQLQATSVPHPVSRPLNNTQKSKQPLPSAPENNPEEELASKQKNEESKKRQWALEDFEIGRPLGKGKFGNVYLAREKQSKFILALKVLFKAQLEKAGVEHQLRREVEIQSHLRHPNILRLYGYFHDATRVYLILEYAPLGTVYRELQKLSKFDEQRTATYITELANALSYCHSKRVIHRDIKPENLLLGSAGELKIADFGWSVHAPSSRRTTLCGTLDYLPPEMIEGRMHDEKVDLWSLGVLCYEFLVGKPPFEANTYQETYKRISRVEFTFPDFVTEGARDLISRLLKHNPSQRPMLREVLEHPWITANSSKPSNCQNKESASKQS
# Settings: Compound concentration 20.0 uM, Protein concentration 2.0 uM, Result type QC Liability
# Description: Thermal Shift Assay. Domain: start/stop: E122-S403
The reply should be a number in °C, with the unit left off.

## Input Supply ΔTm value. Item: CCC(C)(C)CC[C@H](NC(=O)N1CCOCC1)C(=O)NC1(C#N)CCN(C)CC1
## Output 0.69

## Input Please give the documented ΔTm of O=C(O)c1cc2cc(Cc3cccnc3)ccc2o1
## Output -0.17

## Input Input CN(C)[C@H]1C[C@H](n2cnc(-c3ccc(F)cn3)c2-c2ccnc3[nH]ccc23)C1 , output reported ΔTm.
## Output -0.76

## Input Provide one value: measured ΔTm of Cc1ccc2c(NS(=O)(=O)c3ccccc3Cl)cccc2c1Oc1ncccc1-c1ccnc(N[C@H]2CCCNC2)n1
## Output 1.28

## Input Read off the recorded ΔTm for O=C(Nc1ccc(Cl)c(-c2ccccn2)c1)c1cccc(COc2ccc(Br)cc2CNCCO)c1
## Output -0.51

## Input Write down ΔTm measured for item COc1cc2nc(C)nc(NC3(c4ccccc4)CC3)c2cc1OC
## Output 0.65

## Input Report ΔTm for COc1cc(-c2cc([C@H](O)C3CC3)n3ncnc(N)c23)ccc1CO
## Output 1.06

## Input Entry N#Cc1ccc(C#CC[C@@H](C#N)NC(=O)[C@H]2CCCCN2)cc1F needs its ΔTm filled in; supply it.
## Output -0.01

## Input Consider the compound C1=Cc2ccccc2C(=C2CCN(CCCCc3nnn[nH]3)CC2)c2ccccc21 . State its measured ΔTm.
## Output -0.37

## Input Identify measured ΔTm corresponding to C[C@H](CCC(=O)O)[C@H]1CC[C@H]2[C@@H]3[C@H](O)C[C@@H]4C[C@H](O)CC[C@]4(C)[C@H]3C[C@H](O)[C@]12C
## Output -1.53

## Input Please indicate ΔTm recorded for Cc1nccc(COC(=O)N2C[C@@H]3[C@@H](CNC(=O)c4ccc5[nH]nnc5c4)[C@@H]3C2)n1
## Output -0.07

## Input State its ΔTm for this compound: OC(c1ccc(-c2ccc(CN3CCN(Cc4ccncc4)CC3)cc2)c(F)c1)(C(F)(F)F)C(F)(F)F
## Output -1.1

## Input Give ΔTm for CCn1c(CNC(=O)c2nc(Cl)cnc2N)[n+](CC)c2ccc(C(=O)N(C)CCN(C)C)cc21
## Output -0.18

----------
# Tgt: Casein kinase I isoform delta (Homo sapiens) (UniProt P48730)
# Sequence (P48730 whole entry, looked up, canonical isoform): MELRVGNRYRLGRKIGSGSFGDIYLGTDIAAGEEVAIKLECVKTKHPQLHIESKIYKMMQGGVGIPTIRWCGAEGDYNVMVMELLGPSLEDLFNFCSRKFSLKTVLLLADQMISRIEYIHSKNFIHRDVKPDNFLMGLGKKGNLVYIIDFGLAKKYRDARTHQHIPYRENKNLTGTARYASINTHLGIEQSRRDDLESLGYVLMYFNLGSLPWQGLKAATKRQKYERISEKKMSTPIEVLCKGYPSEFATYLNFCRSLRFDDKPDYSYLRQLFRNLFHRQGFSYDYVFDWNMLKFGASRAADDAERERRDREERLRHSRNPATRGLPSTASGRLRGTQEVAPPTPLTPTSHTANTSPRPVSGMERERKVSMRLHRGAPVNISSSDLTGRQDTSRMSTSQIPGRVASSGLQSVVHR
# Settings: Compound concentration 20.0 uM, Protein concentration 2.0 uM, Result type QC Liability
# Description: Thermal Shift Assay. Domain: start/stop: M1-K294
Parameter: ΔTm (°C)
Number only, in °C; omit the unit.

In the examples that follow, each entry is paired with its recorded ΔTm.
Item smiles: Cc1ccc(C(=O)Nc2cc(N3CCN(C)CC3)cc(C(F)(F)F)c2)cc1-n1cc(-c2cnn(C)c2C)nn1
Measured value: 1.19
--
Item smiles: N#Cc1c(SCc2csc(-c3ccc(Cl)cc3)n2)nc(N2CCCC2)c(C#N)c1-c1ccc(OCCO)cc1
Measured value: -2.01
--
Item smiles: CNc1nc(Nc2ccc(C(=O)N3CCOCC3)cc2OC)ncc1Cl
Measured value: -0.01
--
Item smiles: O=C1CCCc2[nH]c(-c3ccnc(NCC4CC4)c3)c(Nc3ccccc3)c21
Measured value: 3.16
--
Item smiles: CN(C)C(=O)Cn1cc(-c2nc(C3(c4ccc(-c5cnc(N)nc5)cc4)CC3)no2)cn1
Measured value: 0.13

## Input Specify ΔTm for Cc1ncsc1-c1ccc(CNC(=O)[C@@H]2C[C@@H](O)CN2C(=O)[C@@H](NC(=O)C2(F)CC2)C(C)(C)C)c(OCCOc2ccc(CN3CCN(c4cc(-c5ccccc5O)nnc4N)CC3)cc2)c1 and stop.
## Output 2.6

## Input Please supply the value of reported ΔTm for the item COc1ccc(CC[C@@H](OC(=O)[C@H]2CCCCN2C(=O)[C@@H](c2cc(OC)c(OC)c(OC)c2)C2CCCCC2)c2cccc(OCCN3CCOCC3)c2)cc1OC
## Output -1.85

## Input Please report the measured ΔTm for O=C(NCc1ccc(F)cc1)C1CCN(S(=O)(=O)c2cc(Cl)cc(Cl)c2)CC1
## Output 0.71

## Input Specify measured ΔTm for CCCCC/C=C/C=C1/C(=O)C=C[C@@H]1C/C=C\CCCC(=O)O .
## Output -0.75
